protocol-details: Cmax in cynomolgus monkey at 3 mg/kg administered via oral gavage measured up to 72 hrs post dose
Assay type: ADME, organism-based, Macaca fascicularis
Parameters: dose 3 mg/kg, route oral
condition-description: in vivo
observation-type: Cmax (ng/mL)
Give just the number in ng/mL; leave the unit off.

Please look up its Cmax: `Cc1cc(COc2nc(N)nc3ccn(Cc4ccccn4)c23)no1`
11.2

###

protocol-details: Tmax in C57Bl/6 mouse plasma at 0.3 to 10 mg/kg, po by LC-MS analysis
Format: ADME, organism-based
observation-type: Tmax

Please look up its Tmax: `Cc1cc(COc2nc(N)nc3ccn(Cc4ccccn4)c23)no1`
30 to 60 min
